Taken from patent US20110015162A1.

# Target: UniProtKB P10275
# Sequence (P10275 1-920): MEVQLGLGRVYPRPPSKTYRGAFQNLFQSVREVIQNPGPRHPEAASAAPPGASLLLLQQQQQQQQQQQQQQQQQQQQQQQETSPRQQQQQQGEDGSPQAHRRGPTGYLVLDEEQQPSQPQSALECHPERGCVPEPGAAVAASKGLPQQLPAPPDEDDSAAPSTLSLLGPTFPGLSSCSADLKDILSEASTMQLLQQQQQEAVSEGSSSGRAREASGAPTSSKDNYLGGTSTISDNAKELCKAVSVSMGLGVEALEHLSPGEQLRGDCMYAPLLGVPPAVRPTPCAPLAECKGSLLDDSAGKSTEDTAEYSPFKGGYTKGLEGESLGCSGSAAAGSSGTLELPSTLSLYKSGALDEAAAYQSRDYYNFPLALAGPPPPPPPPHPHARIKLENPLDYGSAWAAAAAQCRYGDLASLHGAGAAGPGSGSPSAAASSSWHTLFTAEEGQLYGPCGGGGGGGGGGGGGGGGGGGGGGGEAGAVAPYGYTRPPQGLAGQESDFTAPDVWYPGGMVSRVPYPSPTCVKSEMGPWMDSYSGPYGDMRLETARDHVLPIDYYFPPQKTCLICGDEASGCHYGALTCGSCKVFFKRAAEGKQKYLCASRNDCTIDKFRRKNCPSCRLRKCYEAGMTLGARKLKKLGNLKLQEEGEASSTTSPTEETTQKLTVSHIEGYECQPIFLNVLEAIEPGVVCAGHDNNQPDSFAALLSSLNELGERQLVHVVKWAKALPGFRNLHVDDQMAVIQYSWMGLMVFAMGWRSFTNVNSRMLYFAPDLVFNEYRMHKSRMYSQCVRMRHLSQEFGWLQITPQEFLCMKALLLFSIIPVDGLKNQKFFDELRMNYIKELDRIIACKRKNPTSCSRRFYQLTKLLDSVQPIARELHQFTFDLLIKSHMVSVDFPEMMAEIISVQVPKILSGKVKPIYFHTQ
# Protocol summary: Androgenic/antiandrogenic action by transactivation test (PC3 reporter cells)
Quantity measured: EC50 (nM)
Your answer is read as nM, so omit the unit and give the number.

C[C@]12CC[C@H]3[C@@H](C=CC4=CC(=O)CC[C@@H]43)[C@@H]1[C@H]1C[C@H]1[C@@]21C=CC(=O)O1 [Example 13] :: 120
CC[C@]12CC[C@H]3[C@H]([C@@H]1[C@@H]1C[C@@H]1[C@@]21C=CC(=O)O1)[C@H](C1CC1)CC1=CC(=O)CC[C@@H]13 [Example 7A] :: 33
C[C@]12CC[C@H]3[C@@H](CCC4=C(Cl)C(=O)CC[C@@H]43)[C@@H]1[C@@H]1C[C@@H]1[C@@]21C=CC(=O)O1 [Example 27] :: 69.5
CC[C@]12CC[C@H]3[C@@H]([C@H]4C[C@H]4C4=CC(=O)CC[C@@H]43)[C@@H]1[C@@H]1C[C@@H]1[C@@]21C=CC(=O)O1 [Example 1] :: 100

What measured EC50 goes with CC[C@]12CC[C@H]3[C@@H]([C@@H]4C[C@@H]4C4=CC(=O)CC[C@@H]43)[C@@H]1[C@@H]1C[C@@H]1[C@@]21C=CC(=O)O1 [Example 2] ? 130
